# assayNotes: folding stability dG unfold from trypsin proteolysis; higher = more stable
Label scheme for folding stability dG unfold: lower than 1 kcal/mol is false (0), 1 kcal/mol and above is true (1).

1) SAMKIIKINGKEVLLVKNENGEILIFVKNKKTNKYYLVKIEIKDGKIKIVEVKPIKTYSLEELLKEELLSAG [r14_384_TrROS_Hall]; true (1)
2) SAGGSAGGSAEKPPPPVVTLRVRVVVEVDGKLYVATAEVRLVDGKLEIRVRIEEVPPGAPVSAGGSAGGSAG [r3_49_TrROS_Hall]; true (1)
3) SMAKVTGYPDIFLVTIYKDGEEKTIPVNFEELVELLKKGVKKVEFTTDNPEFAEKFYKLVKSLGVPVNLKSA [r9_810_TrMRF]; true (1)
4) SAGGSAGGSPLPYLTEDGEVQVVVRIDNSTGTTTVTLTGPDGKLLKTFSVSTDGPAFVVVRAGSAGGSAGGS [r12_960_TrMRF]; true (1)
5) SAGGKGKAVPFEIEFEAPGGKKVKAKITRIDLPDKPIYRVEVEVDGKKITYTATEDEAANLTFTPGGSAGGS [r8_257_TrMRF]; true (1)
6) SAGGSAGGSAGGMPADEKVTTSPEIVTLPNGTRVVVTKSTSPDPSVSSTSVTVLPPNVPPSAGGSAGGSAGG [r11_338_JUSTAS]; false (0)
7) SAIVLVVADDSPEEAVERARRFAATLRERLVREGYPDADVPIVVEVRAVPPPVPVPVRLPDGDEVVPAPSAG [r14_475_TrMRF]; false (0)
8) SKMKIKIEITEVYPEGKTIVVKAEIEIDGKTIEMEMTIKLPNGEEYRIRMRFVRRKDGRLEMEIEVEKLPSA [r9_255_TrROS_Hall]; true (1)
9) SAGGMEKIEIEVENEDGEKVKIEIYFDEETGFIVVKIEGENPELIDALKKKLGLEIVEKREDGYLVFKSAGG [r13_937_TrROS_Hall]; true (1)
10) SAGGSAGGSAGGMTITVVTEESPGPFKTVTVTTTTPLPNGTLATTTTTTFLPVSPDEPVSAGGSAGGSAGGS [r10_241_JUSTAS]; true (1)
11) SAGGSAGGSANRKVIQFDSPEEILEAIDEAPEDDPVIIEWHDPDGGEPWWIKFDGDEIELIMSAGGSAGGSA [r18_407_TrROS]; false (0)
12) SAGGSPTIDITPEVFEELKKKGVTPDKESFNITASLPDGTVYEGTITLPPSNPNIPFEYKPVDKPLESAGGS [r16_497_JUSTAS]; false (0)
13) SAGGSSVLINHTKTFSSEEEAEKEAEELKEKAKKEGFDEVKVEISKDPSGGTYTLKVTIKKKLPPDLKSAGG [r19_92_JUSTAS]; true (1)
14) MKYTLTLTDPTTPTTSTLTVPNDPEKALALLREAKAANPNLTATLTGVTSEEIVEAAKKAGLKDIKPKTAAS [r1_114_JUSTAS]; false (0)
15) SAGGSAGMTPVSEAVVPGPNVTTLTTYRDPSSSALITPVTTTPPDGVPVTTTTLDLGSSTVTLSTTSAGGSA [r15_993_JUSTAS]; true (1)
16) SAGGSAGGMTTVTYDPSTGVTTVLTPKTDPTSDETSVVTTTVTLPTSPSGGGGTATTTTTTTASSAGGSAGG [r6_952_JUSTAS]; false (0)
17) SAGGSAGGSAGKKKLRLTLPGAEVEYDAATNELTIRLKAPPPPPKTTTKVETKTVLLPGKSAGGSAGGSAGG [r11_149_TrROS_Hall]; false (0)
18) SIVIRLPDGKPLMIQLTMYYPPDNDKIEIPVEIYDGGKPRTFEHEIPPGDNKPVTFSLHIPLPPGAYIKISA [r9_973_TrROS]; true (1)
19) SAGGDPDEIKKVIITARIYRPDPDGNIHTATIPIIIEGPLDEVIEKVAKEIEEAFGTKIVEITVEKGSAGGS [r16_511_TrMRF]; true (1)
20) SAGGSAGGSASVSSPERFTVPRPDGTPVEVTLVEPEKGYYEVTDPATGERTRLPIEDIPPVSAGGSAGGSAG [r3_213_JUSTAS]; false (0)
21) SMKIEVSGGNVTVEMYMWRRKKERDPDDPGKERDQPEPMPQTHTIDPNDPEAAKKFLDKFPPGFRPEIHDSA [r9_476_TrROS]; false (0)
22) SMKSEEEKKAKELKKQKPVIVFDKETGKITVYDAKTGKKIEIEVKVKKTKDGKVEPLTEEELKKLLKKLASA [r9_1056_TrROS_Hall]; true (1)
23) SMPLPFEATVTVPVRDEETGETYTVTVKVEAVNPAVPRPLPDGSIEYEPIPLETVLEIVEKAAEELAKALSA [r9_698_TrMRF]; true (1)
24) KTRHIPIRDALDEAEELIDEGPRMVKITIYNNNGQKHEIETLKDILDKLKSNFPGMPPDNMKVQVEVIPPPS [r1_325_TrROS]; false (0)
25) SAHRIMIMFDSPEQAEEIIRKIAEEMGWKPKNIDVEVHPFPVTRPTPDGKKEEHPMYWVTIEIKLKPKKSAG [r14_773_TrROS]; true (1)

Attribution: the supplement of paper PMC12764529
